Recorded NKL Ortho Proliferation Signal 1:2, one value per entry.
Target: T1, orthogonal hCD122 receptor (hoRb), hCD122 with H133D and Y134F (human, UniProt P14784 27-550)
T1 sequence: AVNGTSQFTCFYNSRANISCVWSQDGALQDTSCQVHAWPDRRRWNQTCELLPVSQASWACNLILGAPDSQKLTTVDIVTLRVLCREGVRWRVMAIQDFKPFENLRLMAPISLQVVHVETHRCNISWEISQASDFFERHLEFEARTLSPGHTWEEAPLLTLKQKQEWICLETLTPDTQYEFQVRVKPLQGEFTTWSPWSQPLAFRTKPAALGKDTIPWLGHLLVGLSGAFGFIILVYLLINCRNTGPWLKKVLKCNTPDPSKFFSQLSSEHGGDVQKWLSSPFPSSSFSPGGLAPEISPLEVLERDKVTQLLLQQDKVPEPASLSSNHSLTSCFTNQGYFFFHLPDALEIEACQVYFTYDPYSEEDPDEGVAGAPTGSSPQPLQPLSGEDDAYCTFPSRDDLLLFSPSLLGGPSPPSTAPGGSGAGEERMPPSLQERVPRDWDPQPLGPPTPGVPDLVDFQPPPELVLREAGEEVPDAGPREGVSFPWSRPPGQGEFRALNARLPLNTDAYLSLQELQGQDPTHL
Experiment: cell-based or functional assay
Please reply with the number alone, leaving off any unit.

| Binder | Measured Value |
| --- | --- |
| L80V, SQVLKA (ligand) APTSSSTKKTQLQLSQLLVLLKAILNGINNYKNPKLTRMLTFKFYMPKKATELKHLQCLEEELKPLEEVLNLAQSKNFHVRPRDLISNINVIVLELKGSETTFMCEYADETATIVEFLNRWITFCQSIISTLT | 62500 |
| ΔL19, SQ_LKA (ligand) APTSSSTKKTQLQLSQLLLLKAILNGINNYKNPKLTRMLTFKFYMPKKATELKHLQCLEEELKPLEEVLNLAQSKNFHLRPRDLISNINVIVLELKGSETTFMCEYADETATIVEFLNRWITFCQSIISTLT | 6440 |
| T3C, SQVLKA (ligand) APCSSSTKKTQLQLSQLLVLLKAILNGINNYKNPKLTRMLTFKFYMPKKATELKHLQCLEEELKPLEEVLNLAQSKNFHLRPRDLISNINVIVLELKGSETTFMCEYADETATIVEFLNRWITFCQSIISTLT | 60600 |
| KQVLKA (ligand) APTSSSTKKTQLQLKQLLVLLKAILNGINNYKNPKLTRMLTFKFYMPKKATELKHLQCLEEELKPLEEVLNLAQSKNFHLRPRDLISNINVIVLELKGSETTFMCEYADETATIVEFLNRWITFCQSIISTLT | 71200 |
| TQVLKA (ligand) APTSSSTKKTQLQLTQLLVLLKAILNGINNYKNPKLTRMLTFKFYMPKKATELKHLQCLEEELKPLEEVLNLAQSKNFHLRPRDLISNINVIVLELKGSETTFMCEYADETATIVEFLNRWITFCQSIISTLT | 50400 |

What the record says about Q126H, SQVLKA (ligand) APTSSSTKKTQLQLSQLLVLLKAILNGINNYKNPKLTRMLTFKFYMPKKATELKHLQCLEEELKPLEEVLNLAQSKNFHLRPRDLISNINVIVLELKGSETTFMCEYADETATIVEFLNRWITFCHSIISTLT : NKL Ortho Proliferation Signal 1:2 is 43600

For reference, reported NKL Ortho Proliferation Signal 1:2 for SQVLVA (ligand) APTSSSTKKTQLQLSQLLVLLVAILNGINNYKNPKLTRMLTFKFYMPKKATELKHLQCLEEELKPLEEVLNLAQSKNFHLRPRDLISNINVIVLELKGSETTFMCEYADETATIVEFLNRWITFCQSIISTLT stands at 10800
